Test: qHTS assay to identify small molecule antagonists of the retinoid acid receptor (RAR) signaling pathway - cell viability counter screen (AID 1159551); also: nearly all actives have a fitted effect of over 35% in size
Settings: C3RL4 cells viability, ATP luminescence (CellTiter-Glo), 6 h; series mostly up to 92.4 µM
Procedure: U.S. Tox21 Program National Center for Advancing Translational Sciences [NCATS] NIH Chemical Genomics Center [NCGC] U.S. Environmental Protection Agency [EPA] National Institutes of Environmental Health Sciences [NIEHS] National Toxicology Program [NTP] U.S. Food and Drug Administration [FDA] […] Also cytotoxicity was assessed by determining the viability of cells based on the quantitation of ATP. […]
Inconclusive results are not listed. The source made the active and inactive calls. Calls follow the shape of the dose curve; as a rule, active = well fitted cell-killing curve with a large enough effect in the repeat runs; inconclusive = weak or mixed curves, or effect the other way; inactive = flat fitted curve, though single readings scatter.
Field 'call' accepts T = active, F = inactive

Consider the following illustrative entries.
Brc1cccc(-c2ccccc2)c1	F
CC(Cc1ccc2c(c1)OCO2)NO (stereo not drawn)	F
Oc1cccc(Cl)c1Cl	F
CCOP(=O)(OCC)Oc1cc(C)nc(C(C)C)n1	F
CNC(=O)/C=C(\C)OP(=O)(OC)OC	F
N#Cc1c2ccccc2cc2ccccc12	F
O=C1C[C@@H]2OCC=C3CN4CC[C@]56c7ccccc7N1[C@H]5[C@H]2[C@H]3C[C@H]46	F
CSC1=N[C@@](C)(c2ccccc2)C(=O)N1Nc1ccccc1	F
CCCCCCC[CH2][Sn]([Cl])([Cl])[CH2]CCCCCCC	F
ClCBr	F

Ask: Per the records of this test, what outcome belongs to Nc1ccccc1-c1ccccc1 ?
Reply: F

Ask: Per the records of this test, what outcome belongs to O=[N+]([O-])c1ccc(Cl)c(Cl)c1Cl ?
Reply: F

Ask: Per the records of this test, what outcome belongs to CCC[CH2][Sn]([CH2]CCC)([CH2]CCC)[O][Sn]([CH2]CCC)([CH2]CCC)[CH2]CCC ?
Reply: T

FYI, the data here is from PubChem BioAssay (Tox21).
